# assay target: Phosphatidylinositol 4,5-bisphosphate 3-kinase catalytic subunit gamma isoform (Homo sapiens, UniProt P48736)
# Sequence (P48736 whole entry, canonical isoform): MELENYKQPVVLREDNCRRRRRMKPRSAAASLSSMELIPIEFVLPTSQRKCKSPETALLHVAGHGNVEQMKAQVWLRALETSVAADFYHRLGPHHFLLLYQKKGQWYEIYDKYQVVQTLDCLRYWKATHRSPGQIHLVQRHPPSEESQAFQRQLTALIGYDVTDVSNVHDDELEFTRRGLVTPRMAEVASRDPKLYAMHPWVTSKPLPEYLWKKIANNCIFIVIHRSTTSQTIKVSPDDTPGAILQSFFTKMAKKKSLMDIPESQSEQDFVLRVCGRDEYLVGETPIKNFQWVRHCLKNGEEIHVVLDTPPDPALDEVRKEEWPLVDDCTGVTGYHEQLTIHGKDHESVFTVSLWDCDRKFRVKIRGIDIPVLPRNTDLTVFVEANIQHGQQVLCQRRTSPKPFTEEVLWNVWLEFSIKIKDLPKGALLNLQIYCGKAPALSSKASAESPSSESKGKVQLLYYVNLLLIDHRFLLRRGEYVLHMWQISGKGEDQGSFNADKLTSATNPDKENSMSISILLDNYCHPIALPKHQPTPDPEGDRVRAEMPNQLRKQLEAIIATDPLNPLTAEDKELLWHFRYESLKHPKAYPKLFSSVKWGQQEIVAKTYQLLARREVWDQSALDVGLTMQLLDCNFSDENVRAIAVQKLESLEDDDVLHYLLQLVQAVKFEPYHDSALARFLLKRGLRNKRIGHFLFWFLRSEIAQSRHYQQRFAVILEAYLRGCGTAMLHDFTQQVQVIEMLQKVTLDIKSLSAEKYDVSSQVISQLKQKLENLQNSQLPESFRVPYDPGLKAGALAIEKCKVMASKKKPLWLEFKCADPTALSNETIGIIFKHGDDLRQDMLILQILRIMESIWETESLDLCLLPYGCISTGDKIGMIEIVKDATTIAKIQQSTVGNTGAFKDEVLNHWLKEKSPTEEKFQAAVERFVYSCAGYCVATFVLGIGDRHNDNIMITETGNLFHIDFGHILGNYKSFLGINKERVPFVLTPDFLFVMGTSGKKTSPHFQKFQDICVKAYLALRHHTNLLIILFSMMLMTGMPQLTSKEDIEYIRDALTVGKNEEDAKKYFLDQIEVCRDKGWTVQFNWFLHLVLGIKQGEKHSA
endpoint label: pIC50
Quick note: pIC50 values are minus log10 of concentrations in mol/L.

Could you share which pIC50 value was measured for "COc1ncc(-c2ccc3nccc(-c4ccnnc4)c3c2)cc1NS(=O)(=O)c1ccc(F)cc1F" ? 10.62

###

# assay target: MAP kinase-interacting serine/threonine-protein kinase 2 (Homo sapiens, UniProt Q9HBH9)
# Sequence (Q9HBH9 whole entry): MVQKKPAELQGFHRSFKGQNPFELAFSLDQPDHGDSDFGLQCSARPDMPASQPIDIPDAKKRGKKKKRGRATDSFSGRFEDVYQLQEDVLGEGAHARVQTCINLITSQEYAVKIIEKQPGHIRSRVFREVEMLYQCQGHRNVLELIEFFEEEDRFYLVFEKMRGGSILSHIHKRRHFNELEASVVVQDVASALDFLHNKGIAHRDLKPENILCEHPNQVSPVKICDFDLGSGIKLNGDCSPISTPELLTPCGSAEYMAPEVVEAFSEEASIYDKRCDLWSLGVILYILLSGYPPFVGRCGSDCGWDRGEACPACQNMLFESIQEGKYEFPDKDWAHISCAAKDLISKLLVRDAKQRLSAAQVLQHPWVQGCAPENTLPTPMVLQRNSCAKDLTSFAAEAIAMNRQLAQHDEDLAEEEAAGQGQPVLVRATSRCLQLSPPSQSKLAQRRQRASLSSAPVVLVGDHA
endpoint label: pIC50
Quick note: pIC50 values are minus log10 of concentrations in mol/L.

Could you share which pIC50 value was measured for "C[C@H](CN)Oc1ccc2ncc(-c3cc4ccccc4o3)n2n1" ? 6.04
